method.notes: Cytotoxicity against Homo sapiens (human) MT4 cells after 4 days by MTT assay
Type: cell-based
quantity: log10 CC50 at 96 h (log10 of the value in µg/mL)
// units: µg/mL (pre-log); metric: CC50 at 96 h; scale: log10

Sample answers from the record:
O=C(N/N=C/c1ccc([N+](=O)[O-])cc1)c1cccnc1 :: -1.00
O=C(N/N=C/c1ccc(Br)cc1)c1cccnc1 :: 1.79
O=C(N/N=C/c1cccc(Cl)c1)c1cccnc1 :: 1.79
O=C(N/N=C/c1ccc(Cl)cc1)c1cccnc1 :: 1.88

Record summary for O=C(N/N=C/c1ccc(O)cc1)c1cccnc1 : reported log10 CC50 at 96 h = 2.02

Record summary for O=C(N/N=C/c1ccccc1[N+](=O)[O-])c1cccnc1 : reported log10 CC50 at 96 h = 1.83

Record summary for O=C(N/N=C/c1cccc(Br)c1)c1cccnc1 : reported log10 CC50 at 96 h = 1.82

Record summary for COc1ccc(/C=N/NC(=O)c2cccnc2)cc1 : reported log10 CC50 at 96 h = 2.00

Record summary for O=C(N/N=C/c1ccccc1O)c1cccnc1 : reported log10 CC50 at 96 h = -0.21

Record summary for O=C(N/N=C/c1cccc(O)c1)c1cccnc1 : reported log10 CC50 at 96 h = 1.99

Record summary for COc1ccc(OC)c(/C=N/NC(=O)c2cccnc2)c1 : reported log10 CC50 at 96 h = 1.11

Record summary for O=C(N/N=C/c1cccc([N+](=O)[O-])c1)c1cccnc1 : reported log10 CC50 at 96 h = 1.73

* * *

Documented MCC across a set of molecules
method.notes: Cytotoxicity against Homo sapiens (human) HeLa cells assessed as alteration in cell morphology by microscopy
Type: cell-based

O=C(N/N=C/c1ccccc1)c1cccnc1 [NICOTINIC ACID BENZYLIDENE-HYDRAZIDE] :: 100 µg/mL
O=C(N/N=C/c1cccc(Br)c1)c1cccnc1 :: ≥ 100 µg/mL
COc1cc(/C=N/NC(=O)c2cccnc2)ccc1O :: > 100 µg/mL
COc1ccc(/C=N/NC(=O)c2cccnc2)cc1 :: > 100 µg/mL
O=C(N/N=C/c1ccccc1O)c1cccnc1 :: 4 µg/mL

Record summary for O=C(N/N=C/c1ccc([N+](=O)[O-])cc1)c1cccnc1 : reported MCC = 0.8 µg/mL

Record summary for O=C(N/N=C/c1ccc(O)cc1)c1cccnc1 : reported MCC = > 100 µg/mL

Record summary for O=C(N/N=C/c1ccc(F)cc1)c1cccnc1 : reported MCC = > 100 µg/mL

Record summary for O=C(N/N=C/c1cccc(O)c1)c1cccnc1 : reported MCC = > 100 µg/mL

Record summary for COc1ccc(OC)c(/C=N/NC(=O)c2cccnc2)c1 : reported MCC = > 100 µg/mL

Record summary for O=C(N/N=C/c1ccc(Br)cc1)c1cccnc1 : reported MCC = > 100 µg/mL

* * *

method.notes: Cytotoxicity against Homo sapiens (human) HeLa cells assessed as alteration in cell morphology by microscopy
Type: cell-based
Documented MCC across a set of molecules

Record summary for O=C(N/N=C/c1ccccc1Br)c1cccnc1 : reported MCC = > 100 µg/mL

Record summary for O=C(N/N=C/c1cccc(Cl)c1)c1cccnc1 : reported MCC = > 100 µg/mL

Record summary for O=C(N/N=C/c1ccccc1[N+](=O)[O-])c1cccnc1 : reported MCC = > 100 µg/mL

Record summary for O=C(N/N=C/c1ccccc1Cl)c1cccnc1 : reported MCC = 100 µg/mL

Record summary for O=C(N/N=C/c1ccc(Cl)cc1)c1cccnc1 : reported MCC = > 100 µg/mL

Record summary for O=C(N/N=C/c1cccc([N+](=O)[O-])c1)c1cccnc1 : reported MCC = 20 µg/mL

Record summary for CCOc1cc(/C=N/NC(=O)c2cccnc2)ccc1O : reported MCC = > 100 µg/mL

* * *

Documented MCC across a set of compounds
method.notes: Cytotoxicity against Chlorocebus aethiops (African green monkey) Vero cells assessed as alteration in cell morphology by microscopy
Type: cell-based
measurement.context: chlorocebus sabaeus

O=C(N/N=C/c1ccc([N+](=O)[O-])cc1)c1cccnc1 :: ≥ 0.8 µg/mL

Record summary for CCOc1cc(/C=N/NC(=O)c2cccnc2)ccc1O : reported MCC = > 100 µg/mL

* * *

Documented EC50 across a set of compounds
System: Punta Toro virus
method.notes: Antiviral activity against Punta Toro virus infected Vero cells assessed as inhibition of virus-induced cytopathicity
Type: functional, organism-based

O=C(N/N=C/c1ccccc1Cl)c1cccnc1 :: > 100 µg/mL
O=C(N/N=C/c1ccccc1O)c1cccnc1 :: > 0.8 µg/mL
COc1ccc(OC)c(/C=N/NC(=O)c2cccnc2)c1 :: > 100 µg/mL
O=C(N/N=C/c1cccc(Cl)c1)c1cccnc1 :: > 100 µg/mL
O=C(N/N=C/c1cccc([N+](=O)[O-])c1)c1cccnc1 :: > 100 µg/mL

Kindly consider the entry below.
Record summary for O=C(N/N=C/c1ccccc1)c1cccnc1 [NICOTINIC ACID BENZYLIDENE-HYDRAZIDE] : reported EC50 = > 100 µg/mL

* * *

System: Candida albicans
method.notes: Antimicrobial activity against Candida albicans after 2 days by serial dilution method
Format: functional
Set-up: unit not given here
Documented -logMIC across a set of molecules
API note: the answer field is a bare number with no unit suffix.

Sample answers from the record:
O=C(N/N=C/c1cccc(Br)c1)c1cccnc1 :: 1.38
O=C(N/N=C/c1cccc(O)c1)c1cccnc1 :: 1.28
O=C(N/N=C/c1ccccc1Cl)c1cccnc1 :: 1.32
O=C(N/N=C/c1ccc(Cl)cc1)c1cccnc1 :: 1.32
O=C(N/N=C/c1ccc(Br)cc1)c1cccnc1 :: 1.39

Kindly consider the entry below.
Record summary for OC(Cn1cncn1)(Cn1cncn1)c1ccc(F)cc1F [FLUCONAZOLE] : reported -logMIC = 2.64

* * *

System: Coxsackievirus B4
method.notes: Antiviral activity against Human coxsackievirus B4 infected human HeLa cells assessed as inhibition of virus-induced cytopathicity by microscopy
Type: functional, organism-based
measurement.context: Enterovirus B
Documented EC50 across a set of compounds

Sample answers from the record:
O=C(N/N=C/c1cccc(Br)c1)c1cccnc1 :: > 100 mg/L
O=C(N/N=C/c1ccc(Br)cc1)c1cccnc1 :: > 100 mg/L
O=C(N/N=C/c1ccc(O)cc1)c1cccnc1 :: > 100 mg/L
O=C(N/N=C/c1ccccc1Br)c1cccnc1 :: > 100 mg/L
COc1ccc(OC)c(/C=N/NC(=O)c2cccnc2)c1 :: > 100 mg/L
O=C(N/N=C/c1cccc([N+](=O)[O-])c1)c1cccnc1 :: > 4 mg/L

Record summary for COc1cc(/C=N/NC(=O)c2cccnc2)ccc1O : reported EC50 = > 100 mg/L

Record summary for O=C(N/N=C/c1ccc(F)cc1)c1cccnc1 : reported EC50 = > 100 mg/L

Record summary for COc1ccc(/C=N/NC(=O)c2cccnc2)cc1 : reported EC50 = > 100 mg/L

* * *

System: Candida albicans
method.notes: Antimicrobial activity against Candida albicans after 2 days by serial dilution method
Assay type: functional
Design: unit not given here
quantity: -logMIC
API note: the answer field is a bare number with no unit suffix.

Sample answers from the record:
O=C(N/N=C/c1ccccc1Br)c1cccnc1 :: 1.39
O=C(N/N=C/c1ccccc1O)c1cccnc1 :: 1.28
O=C(N/N=C/c1ccc([N+](=O)[O-])cc1)c1cccnc1 :: 1.33

Record summary for COc1ccc(/C=N/NC(=O)c2cccnc2)cc1 : reported -logMIC = 1.31

Record summary for COc1cc(/C=N/NC(=O)c2cccnc2)ccc1O : reported -logMIC = 1.34

Record summary for O=C(N/N=C/c1ccccc1[N+](=O)[O-])c1cccnc1 : reported -logMIC = 1.33

Record summary for O=C(N/N=C/c1ccc(F)cc1)c1cccnc1 : reported -logMIC = 1.29

Record summary for O=C(N/N=C/c1cccc(Cl)c1)c1cccnc1 : reported -logMIC = 1.32

* * *

method.notes: Cytotoxicity against Homo sapiens (human) MT4 cells after 4 days by MTT assay
Type: cell-based
Documented CC50 at 96 h across a set of molecules

Sample answers from the record:
Cc1cn([C@H]2C[C@H](N=[N+]=[N-])[C@@H](CO)O2)c(=O)[nH]c1=O [ZIDOVUDINE] :: > 2.5 µg/mL
O=C(N/N=C/c1ccccc1Br)c1cccnc1 :: ≥ 0.22 µg/mL
CCOc1cc(/C=N/NC(=O)c2cccnc2)ccc1O :: ≥ 117 µg/mL
COc1cc(/C=N/NC(=O)c2cccnc2)ccc1O :: ≥ 93 µg/mL
O=C(N/N=C/c1ccccc1)c1cccnc1 [NICOTINIC ACID BENZYLIDENE-HYDRAZIDE] :: > 125 µg/mL

Record summary for Cc1ccnc2c1NC(=O)c1cccnc1N2C1CC1 [NEVIRAPINE] : reported CC50 at 96 h = > 4 µg/mL

Record summary for O=C(N/N=C/c1ccc(F)cc1)c1cccnc1 : reported CC50 at 96 h = > 125 µg/mL

Record summary for O=C(N/N=C/c1ccccc1Cl)c1cccnc1 : reported CC50 at 96 h = ≥ 0.57 µg/mL
